- target-system: human CCR6 (Homo sapiens)
- Construct: expressed in transfected cells; host or cells: HEK-293
- experiment-description: FLIPR assay (inhibition of CCL20-induced calcium signal)
- Assay type: cell-based
- condition-description: HEK-293 cells expressing human CCR6; mean values where determined several times; read-out: FLIPR IC50
property-measured: pIC50
Quick note: pIC50 values are minus log10 of concentrations in mol/L.

Example cases with answers are listed next.
{"compound": "CC(C)c1ccc([C@](O)(c2cncc(N3CC(C(C)C)OC3=O)c2)C2(C)CN(C)C2)cc1 (stereo partly shown)", "numeric-value": 7.17}
{"compound": "CC(C)c1ccc([C@](O)(c2cncc(OC3CCC(C)(O)CC3)c2)C2(C)CN(C)C2)cc1 (stereo partly shown)", "numeric-value": 7.14}
{"compound": "CC(C)c1ccc([C@](O)(c2cncc(N3CC(C)(C)OC3=O)c2)C2(C)CN(C)C2)cc1", "numeric-value": 6.39}

Prompt line: Let me know recorded pIC50 for CC(C)c1ccc([C@](O)(c2ccnc(CCC(C)(C)O)c2)C2(C)CN(C)C2)cc1 , thanks.
Response line: 6.17

###

- target-system: human CCR6 (Homo sapiens, UniProt P51684)
- Construct: expressed in transfected cells; host or cells: HEK-293
- Sequence (P51684 1-374): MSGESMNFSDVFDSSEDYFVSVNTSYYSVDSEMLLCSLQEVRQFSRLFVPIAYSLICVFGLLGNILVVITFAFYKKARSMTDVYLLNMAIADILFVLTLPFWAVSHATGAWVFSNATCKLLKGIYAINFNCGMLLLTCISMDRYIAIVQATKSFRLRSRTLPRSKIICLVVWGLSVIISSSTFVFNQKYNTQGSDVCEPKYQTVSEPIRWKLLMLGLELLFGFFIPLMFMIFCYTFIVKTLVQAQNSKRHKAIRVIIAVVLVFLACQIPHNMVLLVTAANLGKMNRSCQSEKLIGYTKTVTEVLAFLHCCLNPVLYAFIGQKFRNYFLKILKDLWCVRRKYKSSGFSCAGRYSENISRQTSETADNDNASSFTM
- experiment-description: FLIPR assay (inhibition of CCL20-induced calcium signal)
- Assay type: cell-based
- condition-description: HEK-293 cells expressing human CCR6; mean values where determined several times; read-out: FLIPR IC50
Please use T for IC50 under 60 nM and F for everything else, ties included.

Examples with answers:
{"compound": "CC(C)c1ccc([C@](O)(c2cncc(OCc3nc(C4CC4)no3)c2)C2(C)CN(C)C2)cc1 [Example 254]", "target-system": "human CCR6 (Homo sapiens, UniProt P51684)", "assigned-label": "T"}
{"compound": "CCC(O)(CCc1cncc([C@@](O)(c2ccc(C(C)C)cc2)C2(C)CN(C)C2)c1)c1ccccn1 (stereo partly shown) [Example 79]", "target-system": "human CCR6 (Homo sapiens, UniProt P51684)", "assigned-label": "T"}

Prompt line: A record lists CC(C)c1ccc([C@](O)(c2cncc(-c3noc(C4(F)CCNCC4)n3)c2)C2(C)CN(C)C2)cc1 [Example 369] . Is its IC50 below 60 nM?
Response line: F

Prompt line: Dear reviewer, please state whether CC(C)c1ccc([C@](O)(c2cncc(C#CC(C)(C)S(C)(=O)=O)c2)C2(C)CN(C)C2)cc1 [Example 605] has IC50 strictly beneath 60 nM.
Response line: F

Prompt line: Please state whether IC50 is below 60 nM for CC(=O)N1CCC(c2nc(-c3cncc([C@@](O)(c4ccc(C(C)C)cc4)C4(C)CN(C5CC5)C4)c3)no2)CC1 [Example 450]
Response line: T

Prompt line: Find out if reported IC50 for Cc1cc(C(C)(O)C#Cc2cncc([C@@](O)(c3ccc(C(C)C)cc3)C3(C)CN(C)C3)c2)nn1C (single isomer, unassigned) [Example 402] is less than 60 nM
Response line: F

Prompt line: # strict comparison: is reported IC50 < 60 nM? input = CC(C)c1ccc([C@](O)(c2cncc(CCCCO)c2)C2(C)CN(C)C2)cc1 [Example 57]
Response line: F
